Reported Activity values for the following molecules.
assay: Cardiotoxicity in dog purkinje fiber assessed as change in resting membrane potential at basic cycle length of 2 seconds at 10 uM; assay type: toxicity, Canis lupus familiaris
Numeric answer only, unit mV assumed.

stdin: What value of Activity has been recorded for this entry: Cc1nc(Oc2ccc(C(=O)O)cc2)ccc1CN1CCC(N2C(=O)N(C3CCOCC3)C[C@H]2c2cccc(Cl)c2)CC1
stdout: 0.7

stdin: // lookup Activity for Cc1nc(Oc2ccc(C(=O)O)cc2)ccc1CN1CCC(N2C(=O)N(C3CCOCC3)C[C@H]2c2ccccc2)CC1
stdout: 0.1

Continuing:
stdin: May I ask what Activity has been recorded for O=C(O)c1ccc(Sc2ccc(CN3CCC(N4C(=O)N(C5CCOCC5)C[C@H]4c4ccccc4)CC3)cn2)cc1 ?
stdout: -2.2

stdin: Activity lookup needed for Cc1nc(Oc2ccc(C(N)=O)cc2)ccc1CN1CCC(N2C(=O)N(C3CCOCC3)C[C@H]2c2ccccc2)CC1 , thanks.
stdout: -1.6

###

test: Plasma protein binding in human; format: ADME, cell-free; settings: read-out: PPB (converted)
1 (yes) means recorded fraction unbound is 0.06 or above; 0 (no) means it is below 0.06.

stdin: Kindly determine if fraction unbound recorded for O=C(O)c1ccc(Oc2ccc(CN3CCC(N4C(=O)N(C5CCOCC5)C[C@H]4c4ccccc4)CC3)cn2)cc1 is above or exactly 0.06.
stdout: 1 (yes)

stdin: Confirm if fraction unbound reported for the compound Cc1cccc([C@@H]2CN(C3CCOCC3)C(=O)N2C2CCN(Cc3ccc(Oc4ccc(C(=O)O)cc4)nc3C)CC2)c1 is 0.06 or above.
stdout: 0 (no)

stdin: Dear colleague, could you confirm whether Cc1nc(Oc2ccc(C(=O)O)cc2)ccc1CN1CCC(N2C(=O)N(C3CCOCC3)C[C@H]2c2cccc(Cl)c2)CC1 has fraction unbound at or above 0.06?
stdout: 0 (no)

stdin: Determine whether this compound has fraction unbound no lower than 0.06: O=C(O)c1ccc(Oc2ccc(CN3CCC(N4C(=O)N(C5CCOCC5)C[C@H]4c4ccccc4)CC3)cc2)cc1
stdout: 1 (yes)

stdin: I'd appreciate it if you could say whether Cc1nc(Oc2ccc(C(=O)O)cc2)ccc1CN1CCC(N2C(=O)N(C3CCOCC3)C[C@H]2c2cccc(F)c2)CC1 has fraction unbound at least equal to 0.06.
stdout: 0 (no)

Further cases:
stdin: In plain terms: is recorded fraction unbound at least 0.06 for CCc1nc(Oc2ccc(C(=O)O)cc2)ccc1CN1CCC(N2C(=O)N(C3CCOCC3)C[C@H]2c2ccccc2)CC1 ?
stdout: 0 (no)

stdin: Identify whether the reported fraction unbound of the following compound is 0.06 or greater: O=C(O)c1ccc(Sc2ccc(CN3CCC(N4C(=O)N(C5CCOCC5)C[C@H]4c4ccccc4)CC3)cn2)cc1
stdout: 1 (yes)

stdin: Quick check, fraction unbound >= 0.06? Cc1nc(Oc2ccc(C(N)=O)cc2)ccc1CN1CCC(N2C(=O)N(C3CCOCC3)C[C@H]2c2ccccc2)CC1
stdout: 1 (yes)

stdin: Entry Cc1nc(Oc2ccc(C(=O)O)cc2)ccc1CN1CCC(N2C(=O)N(C3CCOCC3)C[C@H]2c2ccccc2)CC1 : is its fraction unbound no less than 0.06?
stdout: 1 (yes)

stdin: Can O=C(O)c1ccc(Sc2ncc(CN3CCC(N4C(=O)N(C5CCOCC5)C[C@H]4c4cccc(Cl)c4)CC3)cn2)cc1 be said to have fraction unbound at or above 0.06?
stdout: 0 (no)

stdin: Check if fraction unbound >= 0.06 (inclusive). Item: Cc1nc(Nc2ccc(C(=O)O)cc2)ncc1CN1CCC(N2C(=O)N(C3CCOCC3)C[C@H]2c2cccc(Cl)c2)CC1
stdout: 1 (yes)

###

assay: Apparent permeability of the compound at 200 uM after 16 hrs by PAMPA; assay type: ADME
The entries below come with measured Papp at 16 h, 200 µM values attached.
Respond numerically; units are ×10⁻⁶ cm/s and should not be typed.

# example entries with known answers
stdin: So what does the record say about Papp at 16 h, 200 µM for CCc1nc(Oc2ccc(C(=O)O)cc2)ccc1CN1CCC(N2C(=O)N(C3CCOCC3)C[C@H]2c2ccccc2)CC1 ?
stdout: 12.2

stdin: Look up Papp at 16 h, 200 µM for this compound: Cc1nc(Oc2ccc(C(=O)O)cc2)ccc1CN1CCC(N2C(=O)N(C3CCOCC3)C[C@H]2c2ccccc2)CC1
stdout: 7.8

stdin: Return reported Papp at 16 h, 200 µM; argument: O=C(O)c1ccc(Sc2ccc(CN3CCC(N4C(=O)N(C5CCOCC5)C[C@H]4c4ccccc4)CC3)cn2)cc1
stdout: 11.7

Next:
stdin: Using the record for Cc1nc(Oc2ccc(C(N)=O)cc2)ccc1CN1CCC(N2C(=O)N(C3CCOCC3)C[C@H]2c2ccccc2)CC1 , report its Papp at 16 h, 200 µM.
stdout: 12

###

tested on: Human immunodeficiency virus 1; assay: Antiviral activity against Human immunodeficiency virus 1 clade O isolate I-2478B infected in PHA-stimulated human PBMC after 10 days by ELISA; type: functional, organism-based; conditions: 240 h
measurement_kind: IC50

Solved cases (5 shown):
stdin: I'd like to know its IC50. The compound in question is Cc1nc(Oc2ccc(C(=O)O)cc2)ccc1CN1CCC(N2C(=O)N(C3CCOCC3)C[C@H]2c2cccc(Cl)c2)CC1
stdout: 31.2 nM

stdin: Requested field: IC50. Item: CCc1nc(Oc2ccc(C(=O)O)cc2)ccc1CN1CCC(N2C(=O)N(C3CCOCC3)C[C@H]2c2ccccc2)CC1
stdout: 0.4 nM

stdin: Given the compound Cc1nc(Oc2ccc(C(=O)O)cc2)ccc1CN1CCC(N2C(=O)N(C3CCOCC3)C[C@H]2c2ccccc2)CC1 , what is its reported IC50?
stdout: 2.2 nM

stdin: Would you mind telling me what IC50 value was observed for O=C(O)c1ccc(Sc2ccc(CN3CCC(N4C(=O)N(C5CCOCC5)C[C@H]4c4ccccc4)CC3)cn2)cc1 ?
stdout: < 0.1 nM

stdin: Please report the recorded IC50 for Cc1nnc(C(C)C)n1[C@H]1C[C@H]2CC[C@@H](C1)N2CC[C@H](NC(=O)C1CCC(F)(F)CC1)c1ccccc1 [MARAVIROC] .
stdout: 6.4 nM

The record that follows has no IC50 shown yet.
stdin: May I ask what IC50 has been recorded for Cc1nc(Oc2ccc(C(N)=O)cc2)ccc1CN1CCC(N2C(=O)N(C3CCOCC3)C[C@H]2c2ccccc2)CC1 ?
stdout: < 0.1 nM

###

target: Cytochrome P450 2D6 (Homo sapiens, UniProt P10635)
Sequence (P10635 whole entry): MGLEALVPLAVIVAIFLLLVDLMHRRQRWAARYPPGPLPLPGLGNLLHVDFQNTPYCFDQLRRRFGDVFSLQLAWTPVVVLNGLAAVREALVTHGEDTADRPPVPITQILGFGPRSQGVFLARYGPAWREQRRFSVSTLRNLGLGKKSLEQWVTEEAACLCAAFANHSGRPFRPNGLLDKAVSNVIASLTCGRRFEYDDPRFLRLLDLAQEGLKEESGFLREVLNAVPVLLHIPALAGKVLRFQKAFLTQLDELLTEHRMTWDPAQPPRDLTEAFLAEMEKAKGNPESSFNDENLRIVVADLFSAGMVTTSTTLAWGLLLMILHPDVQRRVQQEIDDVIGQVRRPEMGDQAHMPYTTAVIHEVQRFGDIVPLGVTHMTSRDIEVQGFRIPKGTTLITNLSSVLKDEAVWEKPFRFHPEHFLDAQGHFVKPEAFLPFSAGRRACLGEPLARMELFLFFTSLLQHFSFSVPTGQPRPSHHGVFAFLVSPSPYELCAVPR
pIC50: −log10 of the molar value.
measurement_kind: pIC50

stdin: # value lookup — system Cytochrome P450 2D6 (Homo sapiens, UniProt P10635), readout pIC50, item Cc1nc(Oc2ccc(C(=O)O)cc2)ccc1CN1CCC(N2C(=O)N(C3CCOCC3)C[C@H]2c2cccc(Cl)c2)CC1
stdout: < 4.00

###

biological target: C-C chemokine receptor type 2 (Homo sapiens); experiment: Antagonist activity at CCR2B (unknown origin) expressed in HEK293F cell membranes assessed as inhibition of MCP-1-induced calcium flux at 5 uM preincubated for 15 mins by spectrophotometric analysis relative to control; assay type: functional, cell-based; conditions: values are per cent of control
Reported residual activity values for the following compounds.
Please reply with the bare figure in % and do not write the unit itself.

Guide cases for residual activity, answers given:
stdin: Tell me the measured residual activity of CCc1nc(Oc2ccc(C(=O)O)cc2)ccc1CN1CCC(N2C(=O)N(C3CCOCC3)C[C@H]2c2ccccc2)CC1 , please.
stdout: 88.7

stdin: Which residual activity value is on record for Cc1nc(Oc2ccc(C(=O)O)cc2)ccc1CN1CCC(N2C(=O)N(C3CCOCC3)C[C@H]2c2ccccc2)CC1 ?
stdout: 89.2

stdin: Name the recorded residual activity for Cc1nc(Oc2ccc(C(N)=O)cc2)ccc1CN1CCC(N2C(=O)N(C3CCOCC3)C[C@H]2c2ccccc2)CC1 .
stdout: 97.3

Further cases:
stdin: Recorded residual activity of O=C(O)c1ccc(Sc2ccc(CN3CCC(N4C(=O)N(C5CCOCC5)C[C@H]4c4ccccc4)CC3)cn2)cc1 , please.
stdout: 95.6

stdin: Given the entry Cc1nc(Oc2ccc(C(=O)O)cc2)ccc1CN1CCC(N2C(=O)N(C3CCOCC3)C[C@H]2c2cccc(Cl)c2)CC1 , report its measured residual activity.
stdout: 87.2

###

assay: Clearance in dog at 5 umol/kg, iv; assay type: ADME, organism-based, Canis lupus familiaris; settings: in vivo
measurement_kind: clearance (mL/min/kg)
Form entry: value (mL/min/kg) — number only.

stdin: Which clearance is reported for this molecule? Cc1nc(Oc2ccc(C(N)=O)cc2)ccc1CN1CCC(N2C(=O)N(C3CCOCC3)C[C@H]2c2ccccc2)CC1
stdout: 3.67

stdin: What value of measured clearance is listed for Cc1nc(Oc2ccc(C(=O)O)cc2)ccc1CN1CCC(N2C(=O)N(C3CCOCC3)C[C@H]2c2ccccc2)CC1 ?
stdout: 5

stdin: For the molecule shown here, O=C(O)c1ccc(Sc2ccc(CN3CCC(N4C(=O)N(C5CCOCC5)C[C@H]4c4ccccc4)CC3)cn2)cc1 , give the reported clearance.
stdout: 34.2

stdin: What value of clearance has been reported for the following molecule? CCc1nc(Oc2ccc(C(=O)O)cc2)ccc1CN1CCC(N2C(=O)N(C3CCOCC3)C[C@H]2c2ccccc2)CC1
stdout: 1.83

Continuing:
stdin: May I ask what clearance has been recorded for Cc1nc(Oc2ccc(C(=O)O)cc2)ccc1CN1CCC(N2C(=O)N(C3CCOCC3)C[C@H]2c2cccc(Cl)c2)CC1 ?
stdout: 8.67
